Listed compounds paired with reported IC50
Test system: AGS cells (KRAS G12D)
Assay Info: Cell viability assay, G12D
Format: cell-based, human
Experimental Parameters: Homo sapiens, 72 hrs, Cell Counting Kit-8
Readout: IC50 (µM)

1) CO[C@@H](C)c1ncc(N2CCN(C)CC2)cc1-c1c2c3cc(c(F)cc3n1CC(F)(F)F)-c1csc(n1)C[C@H](NC(=O)[C@@H](CC(=O)N1CC(C#CC(F)(F)F)C1)C(C)C)C(=O)N1CCC[C@H](N1)C(=O)OCC(C)(C)C2
3.34
2) CC#CC(=O)N1CC[C@H](C(=O)N(C)[C@H](C(=O)N[C@H]2Cc3nc(cs3)-c3ccc4c(c3)c(c(-c3cccnc3[C@H](C)OC)n4CC)CC(C)(C)COC(=O)[C@@H]3CCCN(N3)C2=O)C(C)C)C1 [Example A168, reference compound]
2.19
3) CO[C@@H](C)c1ncc(N2CCN(C)CC2)cc1-c1c2c3cc(c(F)cc3n1CC(F)(F)F)-c1csc(n1)C[C@H](NC(=O)[C@H](C(C)C)N(C)C(=O)[C@H]1C[C@@H](C#Cc3ncc(C(F)(F)F)cn3)C1)C(=O)N1CCC[C@H](N1)C(=O)OCC(C)(C)C2 (atropisomer, axis not shown; (M))
0.328
4) CO[C@@H](C)c1ncc(N2CCN(C)CC2)cc1-c1c2c3cc(c(F)cc3n1CC(F)(F)F)-c1csc(n1)C[C@H](NC(=O)[C@H](C(C)C)N(C)C(=O)[C@H]1C[C@@H](C#CC(F)(F)F)C1)C(=O)N1CCC[C@H](N1)C(=O)OCC(C)(C)C2 (atropisomer, axis not shown; (M))
3.57

---

System: phosphorylation of ERK, KRAS G12C in NCI-H358 cells
Assay Info: pERK inhibition assay, G12C
Type: cell-based, human
Experimental Parameters: Homo sapiens; NCI-H358, 4 hours of incubation
Readout: log10 IC50 (log10 of the value in µM)

1. CCn1c(-c2cc(N3CCN(C)CC3)cnc2[C@H](C)OC)c2c3cc(c(F)cc31)-c1csc(n1)C[C@H](NC(=O)[C@H](C(C)C)N(C)C(=O)[C@H]1C[C@@H](C#CC(F)(F)F)C1)C(=O)N1CCC[C@H](N1)C(=O)OCC(C)(C)C2 (atropisomer, axis not shown; (M))
-2.70
2. CCn1c(-c2cc(N3CCN(CC(F)(F)F)CC3)cnc2[C@H](C)OC)c2c3cc(c(F)cc31)-c1csc(n1)C[C@H](NC(=O)[C@H](C(C)C)N(C)C(=O)N1CC(C#CC(F)(F)F)C1)C(=O)N1CCC[C@H](N1)C(=O)OCC(C)(C)C2 (atropisomer, axis not shown; (M))
-1.70
3. CCn1c(-c2cc(N3CCN(C)CC3)cnc2[C@H](C)OC)c2c3cc(c(F)cc31)-c1csc(n1)C[C@H](NC(=O)[C@H](C(C)C)N(C)C(=O)N1CC(C#CC(F)(F)F)C1)C(=O)N1CCC[C@H](N1)C(=O)OCC(C)(C)C2 (atropisomer, axis not shown; (M))
-2.30
4. CO[C@@H](C)c1ncc(N2CCN(C)CC2)cc1-c1c2c3cc(c(F)cc3n1CC(F)(F)F)-c1csc(n1)C[C@H](NC(=O)[C@H](C(C)C)N(C)C(=O)[C@H]1C[C@@H](C#Cc3nccc(C(F)(F)F)n3)C1)C(=O)N1CCC[C@H](N1)C(=O)OCC(C)(C)C2 (atropisomer, axis not shown; (M))
-1.68
5. CCn1c(-c2cc(N3CCN(CC(F)(F)F)CC3)cnc2[C@H](C)OC)c2c3cc(c(F)cc31)-c1csc(n1)C[C@H](NC(=O)[C@H](C(C)C)N(C)C(=O)[C@H]1C[C@@H](C#CC(F)(F)F)C1)C(=O)N1CCC[C@H](N1)C(=O)OCC(C)(C)C2 (atropisomer, axis not shown; (M))
-2.30
6. CO[C@@H](C)c1ncc(N2CCN(CC(F)(F)F)CC2)cc1-c1c2c3cc(c(F)cc3n1CC(F)(F)F)-c1csc(n1)C[C@H](NC(=O)[C@H](C(C)C)N(C)C(=O)N1CC(C#CC(F)(F)F)C1)C(=O)N1CCC[C@H](N1)C(=O)OCC(C)(C)C2 (atropisomer, axis not shown; (M))
-1.29
7. CO[C@@H](C)c1ncc(N2CCN(C)CC2)cc1-c1c2c3cc(c(F)cc3n1CC(F)(F)F)-c1csc(n1)C[C@H](NC(=O)[C@H](C(C)C)N(C)C(=O)[C@H]1CC[C@@H](C#CC(F)(F)F)CC1)C(=O)N1CCC[C@H](N1)C(=O)OCC(C)(C)C2 (atropisomer, axis not shown; (M))
-1.32
